Tested on: Staphylococcus aureus
Test: MIC micro broth dilution assay
Assay type: cell-based
Parameters: key: stacked score = 100/MIC
Conditions: S. aureus
Method: For this study we used a representative panel of multi-drug resistant clinical ESKAPE pathogen isolates (Supplemental Table S6).^42 43 3a, 44 45 Gram-positive organisms were grown in tryptic soy broth media (TSB), whilst Gram-negative organisms were grown in lysogeny Broth (LB), as described by us previously. ^43 MIC and MBC determination assays. Broth cultures of ESKAPE strains were grown overnight before being diluted 1 in 1,000 in fresh media. […]
quantity: stacked score activity, 100/MIC, S
API note: the answer field is a bare number with no unit suffix.

{"columns": ["compound", "stacked score activity, 100/MIC, S"],
 "data": [
  ["CCCCCCCN1C(=N)NC[C@@H]1CCCCN1C[C@H](C(C)CC)NC1=N (stereo partly shown) [Compound 31]", 4]
]}

Input line: Using the record for CCC(C)[C@H]1CN(CCCC[C@H]2CNC(=N)N2CC2CCCCC2)C(=N)N1 (stereo partly shown) [Compound 40] , report its stacked score activity, 100/MIC, S.
Output line: 0
